Experimental Target: hMOR (Homo sapiens); further: test concentration or dose not given here
Construct: host or cells: CHO-K1
Sequence (P35372 whole entry): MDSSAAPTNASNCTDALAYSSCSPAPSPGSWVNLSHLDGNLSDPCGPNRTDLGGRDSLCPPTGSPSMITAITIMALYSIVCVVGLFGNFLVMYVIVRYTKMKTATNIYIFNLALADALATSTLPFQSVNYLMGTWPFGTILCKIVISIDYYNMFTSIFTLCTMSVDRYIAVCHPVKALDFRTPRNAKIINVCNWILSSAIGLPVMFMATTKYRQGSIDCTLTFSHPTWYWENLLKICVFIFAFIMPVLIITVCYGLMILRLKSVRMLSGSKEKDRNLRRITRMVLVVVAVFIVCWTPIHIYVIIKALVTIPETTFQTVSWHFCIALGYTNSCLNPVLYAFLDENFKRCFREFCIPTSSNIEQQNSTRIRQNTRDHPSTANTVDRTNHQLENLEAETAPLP
Assay Name: cell-based
Assay type: cell-based
Study Conditions: AUC of [Ca2+]i fluorescence; combined with naloxone; CHO-K1/MOR/Gα15 cells
Result Type: AUC

Use these answered entries as a reference point.
- Smiles Notation: "Cc1nc(C)c(-c2csc(Nc3ccccc3N3CCOCC3)n2)s1"
  AUC: "− (−: <5000)"
- Smiles Notation: "Cc1nc(C)c(-c2csc(Nc3ccc(O)cc3C)n2)s1"
  AUC: "− (−: <5000)"
- Smiles Notation: "CCc1ccccc1Nc1nc(-c2sc(C)nc2C)cs1"
  AUC: "+ (+: >5000)"
- Smiles Notation: "COc1ccc(C)c(Nc2nc(-c3sc(C)nc3C)cs2)c1"
  AUC: "− (−: <5000)"
- Smiles Notation: "Cc1csc(Nc2nc(-c3sc(C)nc3C)cs2)n1"
  AUC: "− (−: <5000)"
- Smiles Notation: "Cc1nc(C)c(-c2csc(Nc3ccc(Br)cc3C)n2)s1"
  AUC: "− (−: <5000)"
- Smiles Notation: "Cc1ccc(Nc2nc(-c3oc(C)nc3C)cs2)c(C)c1"
  AUC: "+ (+: >5000)"

Inquiry: I'd like to know its AUC. The compound in question is CCc1ccccc1Nc1nc(-c2sc(-c3ccc(Cl)cc3)nc2C)cs1
Reply text: − (−: <5000)
